System: RD
Experiment: Cytotoxicity against human RD cells assessed as reduction in cell viability after 72 hrs by MTT assay
Assay type: functional, cell-based
Each entry below carries its reported IC50.

Sample records with IC50:
{"columns": ["MOLECULE", "IC50"],
 "data": [
  ["CC1(C)CC[C@]23CC[C@]4(C)[C@H](CC[C@@H]5[C@@](C)(CC#N)[C@H](C(C)(C)C(=O)COC=O)CC[C@]54C)[C@H]2[C@H]1OC3", "> 100 µM"],
  ["COc1cccc2c1C(=O)c1c(O)c3c(c(O)c1C2=O)C[C@@](O)(C(=O)CO)C[C@@H]3O[C@H]1C[C@H](N)[C@H](O)[C@H](C)O1 [DOXORUBICIN]", "1.27 µM"]
]}

q: Request - read-out IC50 | tested on RD | molecule CC(C)(CC(=O)OCC(=O)C(C)(C)[C@@H]1CC[C@]2(C)[C@H](CC[C@@H]3[C@H]4[C@H]5OC[C@@]4(CCC5(C)C)CC[C@]32C)[C@@]1(C)CC#N)C(=O)O
a: > 100 µM

###

Test system: RD
Assay: Cytotoxicity against human RD cells assessed as reduction in cell viability after 72 hrs by MTT assay
Format: functional, cell-based
Label True when IC50 is strictly below 4 µM; otherwise label False.

{"columns": ["COMPOUND", "ANSWER LABEL"],
 "data": [
  ["CC1(C)CC[C@]23CC[C@]4(C)[C@H](CC[C@@H]5[C@@](C)(CC#N)[C@H](C(C)(C)C(=O)COC(=O)CCCCCCCCC(=O)O)CC[C@]54C)[C@H]2[C@H]1OC3", "False"]
]}

q: Please determine if C=C(C=O)[C@@H]1CC[C@]2(C(=O)OC)CC[C@]3(C)[C@H](CC[C@@H]4[C@@](C)(CC#N)[C@H](C(C)(C)C(=O)COC(=O)/C=C/c5ccccc5)CC[C@]43C)[C@@H]12 is below 4 µM in terms of IC50.
a: True

q: Please determine if C=C(C=O)[C@@H]1CC[C@]2(C(=O)OC)CC[C@]3(C)[C@H](CC[C@@H]4[C@]5(C)[C@@H](CC[C@]43C)C(C)(C)[C@@](O)(CO)[C@H]5C#N)[C@@H]12 is below 4 µM in terms of IC50.
a: False

q: Please determine if CC1(C)CC[C@]23CC[C@]4(C)[C@H](CC[C@@H]5[C@@](C)(CC#N)[C@H](C(C)(C)C(=O)COC(=O)c6cccnc6)CC[C@]54C)[C@H]2[C@H]1OC3 is below 4 µM in terms of IC50.
a: False

q: Please determine if C=C(C=O)[C@@H]1CC[C@]2(C(=O)OC)CC[C@]3(C)[C@H](CC[C@@H]4[C@@](C)(CC#N)[C@H](C(C)(C)C(=O)COC(=O)c5ccccc5OC(C)=O)CC[C@]43C)[C@@H]12 is below 4 µM in terms of IC50.
a: False

q: Please determine if CC[C@@]1(O)C(=O)OCc2c1cc1n(c2=O)Cc2cc3ccccc3nc2-1 is below 4 µM in terms of IC50.
a: True

q: Please determine if CC1(C)CC[C@]23CC[C@]4(C)[C@H](CC[C@@H]5[C@@](C)(CC#N)[C@H](C(C)(C)C(=O)[C@@H](Cl)Br)CC[C@]54C)[C@H]2[C@H]1OC3 is below 4 µM in terms of IC50.
a: False

q: Please determine if CC(=O)Oc1ccccc1C(=O)OCC(=O)C(C)(C)[C@@H]1CC[C@]2(C)[C@H](CC[C@@H]3[C@H]4[C@H]5OC[C@@]4(CCC5(C)C)CC[C@]32C)[C@@]1(C)CC#N is below 4 µM in terms of IC50.
a: False

q: Please determine if CC1(C)CC[C@]23CC[C@]4(C)[C@H](CC[C@@H]5[C@@](C)(CC#N)[C@H](C(C)(C)C(O)CO)CC[C@]54C)[C@H]2[C@H]1OC3 (stereo not given in full) is below 4 µM in terms of IC50.
a: False

q: Please determine if C=C(C=O)[C@@H]1CC[C@]2(C(=O)OC)CC[C@]3(C)[C@H](CC[C@@H]4[C@@](C)(CC#N)[C@H](C(C)(C)C(=O)COC(C)=O)CC[C@]43C)[C@@H]12 is below 4 µM in terms of IC50.
a: True

###

Test system: RD
Test: Cytotoxicity against human RD cells assessed as reduction in cell viability after 72 hrs by MTT assay
Type: functional, cell-based
OBSERVABLE: pIC50
# pIC50 = -log10(concentration in molar units)

{"columns": ["COMPOUND", "pIC50"],
 "data": [
  ["CC1(C)CC[C@]23CC[C@]4(C)[C@H](CC[C@@H]5[C@@](C)(CC#N)[C@H](C(C)(C)C(=O)COC(=O)/C=C/c6ccccc6)CC[C@]54C)[C@H]2[C@H]1OC3", 4.35]
]}

Proceed to the following item.
q: Request - read-out pIC50 | tested on RD | compound C=C(CO)[C@@H]1CC[C@]2(C(=O)OC)CC[C@]3(C)[C@H](CC[C@@H]4[C@@](C)(CC#N)[C@H](C(C)(C)C(=O)COC(C)=O)CC[C@]43C)[C@@H]12
a: 4.48

###

Assay: Selectivity index, ratio of IC50 for HEK293 cells to IC50 for human MCF7 cells
Format: toxicity
Settings: HEK293 cells versus MCF7 cells, read-out: Ratio IC50
Each entry below carries its reported selectivity ratio.

{"columns": ["COMPOUND", "selectivity ratio"],
 "data": [
  ["C=C(C=O)[C@@H]1CC[C@]2(C(=O)OC)CC[C@]3(C)[C@H](CC[C@@H]4[C@]5(C)[C@@H](CC[C@]43C)C(C)(C)[C@@](O)(CO)[C@H]5C#N)[C@@H]12", "4.08 to 20.2"],
  ["CC[C@@]1(O)C(=O)OCc2c1cc1n(c2=O)Cc2cc3ccccc3nc2-1", "0.53 to 40.2"]
]}

Proceed to the following item.
q: What does the data say about its selectivity ratio? Entry: C=C(C=O)[C@@H]1CC[C@]2(C(=O)OC)CC[C@]3(C)[C@H](CC[C@@H]4[C@@](C)(CC#N)[C@H](C(C)(C)C(=O)COC(=O)/C=C/c5ccccc5)CC[C@]43C)[C@@H]12
a: 1.84 to 50.3

###

Tested on: RD
Assay: Cytotoxicity against human RD cells assessed as reduction in cell viability after 72 hrs by MTT assay
Type: functional, cell-based
Each entry below carries its reported IC50.

{"columns": ["COMPOUND", "IC50"],
 "data": [
  ["CC1(C)CC[C@]23CC[C@]4(C)[C@H](CC[C@@H]5[C@@](C)(CC#N)[C@H](C(C)(C)C(=O)COC(=O)CC(=O)CC(=O)O)CC[C@]54C)[C@H]2[C@H]1OC3", "50.1 µM"],
  ["C=C(C=O)[C@@H]1CC[C@]2(C(=O)OC)CC[C@]3(C)[C@H](CC[C@@H]4[C@@](C)(CC#N)[C@H](C(C)(C)C(=O)COC(=O)c5cccnc5)CC[C@]43C)[C@@H]12", "8.98 µM"]
]}

Proceed to the following item.
q: Request - read-out IC50 | tested on RD | compound C=C(CO)[C@@H]1CC[C@]2(C(=O)OC)CC[C@]3(C)[C@H](CC[C@@H]4[C@@](C)(CC#N)[C@H](C(C)(C)C(O)CO)CC[C@]43C)[C@@H]12 (stereo partly drawn)
a: 72.4 µM

###

System: RD
Experiment: Cytotoxicity against human RD cells assessed as reduction in cell viability after 72 hrs by MTT assay
Format: functional, cell-based
Each entry below carries its reported pIC50.
# pIC50 = -log10(concentration in molar units)

{"columns": ["COMPOUND", "OBSERVABLE", "NUMERIC READOUT"],
 "data": [
  ["C=C(C=O)[C@@H]1CC[C@]2(C(=O)OC)CC[C@]3(C)[C@H](CC[C@@H]4[C@@](C)(CC#N)[C@H](C(C)(C)C(=O)COC=O)CC[C@]43C)[C@@H]12", "pIC50", 4.31]
]}

q: What does the data say about its pIC50? Entry: CC1(C)CC[C@]23CC[C@]4(C)[C@H](CC[C@@H]5[C@@](C)(CC#N)[C@H](C(C)(C)C(=O)C(Cl)Cl)CC[C@]54C)[C@H]2[C@H]1OC3
a: 4.95

###

Assay: Selectivity index, ratio of IC50 for HEK293 cells to IC50 for human MCF7 cells
Assay type: toxicity
Details: HEK293 cells versus MCF7 cells, read-out: Ratio IC50
OBSERVABLE: selectivity ratio

Sample records with selectivity ratio:
{"columns": ["COMPOUND", "selectivity ratio"],
 "data": [
  ["C=C(C=O)[C@@H]1CC[C@]2(C(=O)OC)CC[C@]3(C)[C@H](CC[C@@H]4[C@@](C)(CC#N)[C@H](C(C)(C)C(=O)COC(=O)c5ccccc5OC(C)=O)CC[C@]43C)[C@@H]12", "1.08 to 22.5"],
  ["C=C(C=O)[C@@H]1CC[C@]2(C(=O)OC)CC[C@]3(C)[C@H](CC[C@@H]4[C@@](C)(CC#N)[C@H](C(C)(C)C(=O)COC(=O)c5cccnc5)CC[C@]43C)[C@@H]12", "1.47 to 8.45"]
]}

q: What does the data say about its selectivity ratio? Entry: C=C(C=O)[C@@H]1CC[C@]2(C(=O)OC)CC[C@]3(C)[C@H](CC[C@@H]4[C@@](C)(CC#N)[C@H](C(C)(C)C(=O)COC(C)=O)CC[C@]43C)[C@@H]12
a: 2.42 to 9.61
